- System: Escherichia coli ATCC 25922
- Format: cell-based
- Measurement Setup: ATCC 25922
Non-standard residues stand in square brackets, D forms with d. Residues, ends and D or L forms follow the SMILES beside them. *: point of attachment. Octanoyl(7-Me) = CC(C)CCCCCC(=O)*; dOrn = NCCC[C@@H](N)C(=O)O; Orn = NCCC[C@H](N)C(=O)O
Value Type: Minimum inhibitory concentration (MIC) (µg/mL)
Record the value in µg/mL, omitting the unit from your answer.

Compound: CC[C@H](C)[C@H](NC(=O)[C@@H](NC(=O)[C@H](Cc1c[nH]c2ccccc12)NC(=O)[C@@H](CCCN)NC(=O)CNC(=O)[C@H](CCCN)NC(=O)[C@@H](CCCN)NC(=O)[C@@H](Cc1c[nH]c2ccccc12)NC(=O)[C@@H](Cc1ccc(O)cc1)NC(=O)[C@@H](CO)NC(=O)CCCCCC(C)C)[C@@H](C)O)C(N)=O [ΔN11-G13, FA-sywoOGoWTI-CONH2] ({Octanoyl(7-Me)}-[dS][dY][dW][dOrn][Orn]G[dOrn]WTI-NH2)
Result Unit: µg/mL
Reported Result: 4

Compound: CC[C@H](C)[C@H](NC(=O)[C@H](Cc1c[nH]c2ccccc12)NC(=O)[C@H](Cc1c[nH]c2ccccc12)NC(=O)[C@@H](CCCN)NC(=O)CNC(=O)[C@H](CCCN)NC(=O)[C@@H](CCCN)NC(=O)[C@@H](Cc1c[nH]c2ccccc12)NC(=O)[C@@H](Cc1ccc(O)cc1)NC(=O)[C@@H](CO)NC(=O)CCCCCC(C)C)C(=O)N[C@@H](CC(N)=O)C(=O)NCC(=O)NCC(N)=O [Trp9-CONH2] ({Octanoyl(7-Me)}-[dS][dY][dW][dOrn][Orn]G[dOrn]WWINGG-NH2)
Result Unit: µg/mL
Reported Result: 4

Then this compound:
Assign Minimum inhibitory concentration (MIC) to the following record: CC[C@H](C)[C@H](NC(=O)[C@@H](NC(=O)[C@H](Cc1c[nH]c2ccccc12)NC(=O)[C@@H](CCCN)NC(=O)CNC(=O)[C@H](CCCN)NC(=O)[C@@H](CCCN)NC(=O)[C@@H](Cc1c[nH]c2ccccc12)NC(=O)[C@@H](Cc1ccc(O)cc1)NC(=O)[C@@H](CO)NC(=O)CCCCCC(C)C)[C@@H](C)O)C(=O)N[C@@H](CC(N)=O)C(=O)NCC(=O)N[C@@H](C)C(N)=O [Ala13 (Gly→Ala), FA-sywoOGoWTINGA-CONH2] ({Octanoyl(7-Me)}-[dS][dY][dW][dOrn][Orn]G[dOrn]WTINGA-NH2)
4

----------
- Test system: Escherichia coli ATCC 25922
- Type: cell-based
- Measurement Setup: ATCC 25922
Positions of bridges follow the written chain, without caps; N, C: chain ends. Non-standard residues stand in square brackets, D forms with d. Residues, ends and D or L forms follow the SMILES beside them. *: point of attachment. Octanoyl(7-Me) = CC(C)CCCCCC(=O)*; dOrn = NCCC[C@@H](N)C(=O)O; Octanoyl = CCCCCCCC(=O)*; Orn = NCCC[C@H](N)C(=O)O
Value Type: Minimum inhibitory concentration (MIC)

Compound: CC[C@H](C)[C@@H]1NC(=O)[C@@H](NC(=O)[C@H](Cc2c[nH]c3ccccc23)NC(=O)[C@@H](CCCN)NC(=O)CNC(=O)[C@H](CCCN)NC(=O)[C@@H](CCCN)NC(=O)[C@@H](Cc2c[nH]c3ccccc23)NC(=O)[C@@H](Cc2ccc(O)cc2)NC(=O)[C@@H](CO)NC(=O)CCCCCC(C)C)[C@@H](C)OC(=O)CNC(=O)[C@H](CO)NC(=O)CNC1=O [Compound R3] ({Octanoyl(7-Me)}-[dS][dY][dW][dOrn][Orn]G[dOrn]WTIGSG; ester 9-C; N-terminus assumed)
Minimum inhibitory concentration (MIC): 2 to 4 µg/mL

Moving on to another compound below.
Specify Minimum inhibitory concentration (MIC) for CCCCCCCC(=O)N[C@H](CO)C(=O)N[C@H](Cc1ccc(O)cc1)C(=O)N[C@H](Cc1c[nH]c2ccccc12)C(=O)N[C@H](CCCN)C(=O)N[C@@H](CCCN)C(=O)NCC(=O)N[C@H](CCCN)C(=O)N[C@@H](Cc1c[nH]c2ccccc12)C(=O)N[C@@H]1C(=O)N[C@@H]([C@@H](C)CC)C(=O)N[C@@H](CC(N)=O)C(=O)NCC(=O)NCC(=O)O[C@@H]1C [Compound C8] (Octanoyl-[dS][dY][dW][dOrn][Orn]G[dOrn]WTINGG; ester 9-C) and stop.
0.5 to 1 µg/mL

----------
- Tested on: E. Coli NCTC 12241
- Format: cell-based
Non-standard residues stand in square brackets, D forms with d. Residues, ends and D or L forms follow the SMILES beside them. ξ: configuration not given here. *: point of attachment. Hexanoyl(4ξ-Me) = CCC(C)CCC(=O)*; dOrn = NCCC[C@@H](N)C(=O)O; Orn = NCCC[C@H](N)C(=O)O; Dap = NC[C@H](N)C(=O)O; Alloc = C=CCOC(=O)*
Value Type: E. coli MIC (µg/mL)
Just the number in µg/mL, nothing appended.

// known answers, use as guide
Molecule: CCC(C)CCC(=O)N[C@H](CC(N)=O)C(=O)N[C@H](Cc1ccc(O)cc1)C(=O)N[C@H](Cc1c[nH]c2ccccc12)C(=O)N[C@H](CCCN)C(=O)N[C@@H](CCCN)C(=O)NCC(=O)N[C@H](CCCN)C(=O)N[C@@H](Cc1c[nH]c2ccccc12)C(=O)N[C@H](C(=O)N[C@H](C(=O)NCC(N)=O)[C@@H](C)CC)[C@@H](C)O (stereo partly drawn) [Und(9-Thr)-NH2] ({Hexanoyl(4ξ-Me)}-[dN][dY][dW][dOrn][Orn]G[dOrn]WTIG-NH2)
System: E. Coli NCTC 12241
Result Unit: µg/mL
Reported Result: 1.56
//
Molecule: CCC(C)CCC(=O)N[C@H](CC(N)=O)C(=O)N[C@H](Cc1ccc(O)cc1)C(=O)N[C@H](Cc1c[nH]c2ccccc12)C(=O)N[C@H](CCCN)C(=O)N[C@@H](CCCN)C(=O)NCC(=O)N[C@H](CCCN)C(=O)N[C@@H](Cc1c[nH]c2ccccc12)C(=O)N[C@@H](C)C(=O)N[C@H](C(=O)NCC(=O)O)[C@@H](C)CC (stereo partly drawn) [MeHex- Ala OH] ({Hexanoyl(4ξ-Me)}-[dN][dY][dW][dOrn][Orn]G[dOrn]WAIG-OH)
System: E. Coli NCTC 12241
Result Unit: µg/mL
Reported Result: 50

Here's the next entry for you.
Report measured E. coli MIC on E. Coli NCTC 12241; entry: C=CCOC(=O)NC[C@H](NC(=O)[C@H](Cc1c[nH]c2ccccc12)NC(=O)[C@@H](CCCN)NC(=O)CNC(=O)[C@H](CCCN)NC(=O)[C@@H](CCCN)NC(=O)[C@@H](Cc1c[nH]c2ccccc12)NC(=O)[C@@H](Cc1ccc(O)cc1)NC(=O)[C@@H](CC(N)=O)NC(=O)CCC(C)CC)C(=O)N[C@H](C(=O)NCC(N)=O)[C@@H](C)CC (stereo partly drawn) [MeHex- Dap(Alloc) NH2] ({Hexanoyl(4ξ-Me)}-[dN][dY][dW][dOrn][Orn]G[dOrn]W[Dap](Alloc)IG-NH2)
0.19

----------
- System: Escherichia coli ATCC 25922
- Assay type: cell-based
- Measurement Setup: ATCC 25922
Positions of bridges follow the written chain, without caps; N, C: chain ends. Non-standard residues stand in square brackets, D forms with d. Residues, ends and D or L forms follow the SMILES beside them. *: point of attachment. Octanoyl(7-Me) = CC(C)CCCCCC(=O)*; dOrn = NCCC[C@@H](N)C(=O)O; Orn = NCCC[C@H](N)C(=O)O
Value Type: Minimum inhibitory concentration (MIC) (µg/mL)
Enter your answer as a number in µg/mL; do not include the unit.

Solved entries:
Compound: CC[C@H](C)[C@@H]1NC(=O)[C@@H](NC(=O)[C@H](Cc2c[nH]c3ccccc23)NC(=O)[C@@H](CCCN)NC(=O)CNC(=O)[C@H](CCCN)NC(=O)[C@@H](CCCN)NC(=O)[C@@H](Cc2c[nH]c3ccccc23)NC(=O)[C@@H](Cc2ccc(O)cc2)NC(=O)[C@H](N)CO)[C@@H](C)OC(=O)CNC(=O)CNC(=O)[C@H](CC(N)=O)NC1=O [NH2] (H-[dS][dY][dW][dOrn][Orn]G[dOrn]WTINGG; ester 9-C)
Reported Result: 32

Compound: CC[C@H](C)[C@H](NC(=O)[C@H](Cc1ccccc1)NC(=O)[C@H](Cc1c[nH]c2ccccc12)NC(=O)[C@@H](CCCN)NC(=O)CNC(=O)[C@H](CCCN)NC(=O)[C@@H](CCCN)NC(=O)[C@@H](Cc1c[nH]c2ccccc12)NC(=O)[C@@H](Cc1ccc(O)cc1)NC(=O)[C@@H](CO)NC(=O)CCCCCC(C)C)C(=O)N[C@@H](CC(N)=O)C(=O)NCC(=O)NCC(N)=O [Phe9-CONH2] ({Octanoyl(7-Me)}-[dS][dY][dW][dOrn][Orn]G[dOrn]WFINGG-NH2)
Reported Result: 2

Switching to the query record.
Look up Escherichia coli ATCC 25922 data: Minimum inhibitory concentration (MIC) of CC[C@H](C)[C@H](NC(=O)[C@H](CO)NC(=O)[C@H](Cc1c[nH]c2ccccc12)NC(=O)[C@@H](CCCN)NC(=O)CNC(=O)[C@H](CCCN)NC(=O)[C@@H](CCCN)NC(=O)[C@@H](Cc1c[nH]c2ccccc12)NC(=O)[C@@H](Cc1ccc(O)cc1)NC(=O)[C@@H](CO)NC(=O)CCCCCC(C)C)C(=O)N[C@@H](CC(N)=O)C(=O)NCC(N)=O [ΔG13-Ser9-isoC9] ({Octanoyl(7-Me)}-[dS][dY][dW][dOrn][Orn]G[dOrn]WSING-NH2) , then report it.
4
